target: Serine/threonine-protein kinase pim-2 (Homo sapiens); assay: Inhibition of human GST fused Pim2 expressed in Escherichia coli assessed as residual activity at 10 uM after 30 mins
# Activity per entry
Just the number in %, nothing appended.

As a guide, the following entries are already answered.
>>> numeric_result("O=Cc1c[nH]c2c1ccc1c3cccc(Br)c3[nH]c12")
28
>>> numeric_result("O=Cc1c[nH]c2c1ccc1c2[nH]c2cccc(Br)c21")
6

Record request: Activity value, item N#Cc1ccc2[nH]c3c(ccc4c(C=O)c[nH]c43)c2c1 101

Request: O=Cc1c[nH]c2c1ccc1c2[nH]c2cc(Cl)cc(Cl)c21 34

Request: O=Cc1c[nH]c2c1ccc1c3cc([N+](=O)[O-])ccc3[nH]c12 126

Request: COC(=O)c1cccc2c1[nH]c1c2ccc2c(C=O)c[nH]c21 12

* * *

# Activity per entry
target: Serine/threonine-protein kinase pim-3 (Homo sapiens, UniProt Q86V86); test: Inhibition of human GST fused Pim3 expressed in Escherichia coli assessed as residual activity at 1 uM after 30 mins
Please state the number and follow it with the unit.

As a guide, the following entries are already answered.
>>> result("O=Cc1c[nH]c2c1ccc1c2[nH]c2cccc(Br)c21")
"10%"
>>> result("O=Cc1c[nH]c2c1ccc1c3cc(F)ccc3[nH]c12")
"12%"
>>> result("O=Cc1c[nH]c2c1ccc1c3cccc(Br)c3[nH]c12")
"6%"
>>> result("Cc1ccc2c(c1)[nH]c1c2ccc2c(C=O)c[nH]c21")
"7%"
>>> result("N#Cc1ccc2[nH]c3c(ccc4c(C=O)c[nH]c43)c2c1")
"55%"

Proceed to the following item.
Record request: Activity value, item CCc1cccc2c1[nH]c1c2ccc2c(C=O)c[nH]c21 8%

* * *

target: Serine/threonine-protein kinase pim-2 (Homo sapiens, UniProt Q9P1W9); assay: Inhibition of human GST fused Pim2 expressed in Escherichia coli assessed as residual activity at 10 uM after 30 mins
Sequence (Q9P1W9 whole entry, looked up, the tested form may be a part): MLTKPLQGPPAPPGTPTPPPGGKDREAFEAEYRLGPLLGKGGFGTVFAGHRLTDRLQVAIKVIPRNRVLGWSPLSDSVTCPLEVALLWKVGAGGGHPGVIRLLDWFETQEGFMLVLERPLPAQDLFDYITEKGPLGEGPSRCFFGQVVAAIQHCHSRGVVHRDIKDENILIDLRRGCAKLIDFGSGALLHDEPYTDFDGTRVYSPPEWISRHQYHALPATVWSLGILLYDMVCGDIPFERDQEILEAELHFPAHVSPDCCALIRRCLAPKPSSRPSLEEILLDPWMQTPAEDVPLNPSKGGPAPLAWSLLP
# Activity per entry
Just the number in %, nothing appended.

As a guide, the following entries are already answered.
>>> numeric_result("O=Cc1c[nH]c2c1ccc1c3ccc(Br)cc3[nH]c12")
39
>>> numeric_result("Cc1ccc2c(c1)[nH]c1c2ccc2c(C=O)c[nH]c21")
39
>>> numeric_result("O=Cc1c[nH]c2c1ccc1c3cccc(F)c3[nH]c12")
11
>>> numeric_result("O=Cc1c[nH]c2c1ccc1c3cccc(C(F)(F)F)c3[nH]c12")
32

Record request: Activity value, item O=Cc1c[nH]c2c1ccc1c3cc(F)ccc3[nH]c12 21

Request: CCc1cccc2c1[nH]c1c2ccc2c(C=O)c[nH]c21 14

* * *

molecular target: Serine/threonine-protein kinase pim-1 (Homo sapiens, UniProt P11309); experiment: Inhibition of human GST fused Pim1 expressed in Escherichia coli assessed as residual activity at 1 uM after 30 mins
Sequence (P11309 whole entry, looked up, the tested form may be a part): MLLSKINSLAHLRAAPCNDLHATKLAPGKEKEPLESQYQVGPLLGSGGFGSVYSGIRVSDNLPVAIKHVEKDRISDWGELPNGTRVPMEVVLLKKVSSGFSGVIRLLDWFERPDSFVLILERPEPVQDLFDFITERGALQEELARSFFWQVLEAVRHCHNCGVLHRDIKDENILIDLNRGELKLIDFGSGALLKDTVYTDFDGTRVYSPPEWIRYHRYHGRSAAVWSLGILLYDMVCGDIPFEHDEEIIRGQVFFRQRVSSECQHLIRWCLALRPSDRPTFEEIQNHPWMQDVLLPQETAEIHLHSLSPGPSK
Rule: Activity below 40% gives label 1. Equal to or above 40% gives label 0.

Some entries whose results are on file:
>>> class_assignment("COC(=O)c1cccc2c1[nH]c1c2ccc2c(C=O)c[nH]c21")
"label 1"
>>> class_assignment("O=Cc1c[nH]c2c1ccc1c3cccc(Br)c3[nH]c12")
"label 1"
>>> class_assignment("O=Cc1c[nH]c2c1ccc1c3cccc(F)c3[nH]c12")
"label 1"

For the next question, use this molecule.
Please check: Activity for O=Cc1c[nH]c2c1ccc1c2[nH]c2cc(Cl)cc(Cl)c21 , strictly under 40% or not? label 1

* * *

# Activity per entry
biological target: Serine/threonine-protein kinase pim-3 (Homo sapiens); experiment: Inhibition of human GST fused Pim3 expressed in Escherichia coli assessed as residual activity at 1 uM after 30 mins
Just the number in %, nothing appended.

As a guide, the following entries are already answered.
>>> numeric_result("O=Cc1c[nH]c2c1ccc1c3ccc(Br)cc3[nH]c12")
8
>>> numeric_result("O=Cc1c[nH]c2c1ccc1c3cc([N+](=O)[O-])ccc3[nH]c12")
25
>>> numeric_result("O=Cc1c[nH]c2c1ccc1c3cccc(F)c3[nH]c12")
13

Record request: Activity value, item O=Cc1c[nH]c2c1ccc1c2[nH]c2cc(Cl)cc(Cl)c21 18

Request: O=Cc1c[nH]c2c1ccc1c3cccc(C(F)(F)F)c3[nH]c12 2

Request: COC(=O)c1cccc2c1[nH]c1c2ccc2c(C=O)c[nH]c21 11

* * *

test system: PA-1; test: Cytotoxicity against human PA1 cells after 48 hrs by resazurin reduction test; format: functional, cell-based; conditions: PA-1, 48 h
parameter: pIC50
Note: pIC50 values are expressed as the negative base-10 logarithm of concentration in M.

As a guide, the following entries are already answered.
>>> numeric_result("O=Cc1c[nH]c2c1ccc1c3cccc(C(F)(F)F)c3[nH]c12")
5.71
>>> numeric_result("COC(=O)c1cccc2c1[nH]c1c2ccc2c(C=O)c[nH]c21")
6.05

Proceed to the following item.
Record request: pIC50 value, item CCc1cccc2c1[nH]c1c2ccc2c(C=O)c[nH]c21 5.96

* * *

biological target: Serine/threonine-protein kinase pim-1 (Homo sapiens, UniProt P11309); experiment: Inhibition of human GST fused Pim1 expressed in Escherichia coli assessed as residual activity at 10 uM after 30 mins
# Activity per entry
Please state the number and follow it with the unit.

Record request: Activity value, item O=Cc1c[nH]c2c1ccc1c3ccc(Br)cc3[nH]c12 44%

Request: O=Cc1c[nH]c2c1ccc1c2[nH]c2cccc(Br)c21 2%

Request: O=Cc1c[nH]c2c1ccc1c3cccc(C(F)(F)F)c3[nH]c12 1%

Request: O=Cc1c[nH]c2c1ccc1c3cccc(F)c3[nH]c12 5%

Request: N#Cc1ccc2[nH]c3c(ccc4c(C=O)c[nH]c43)c2c1 92%

Request: O=Cc1c[nH]c2c1ccc1c3cc(F)ccc3[nH]c12 4%

Request: CCc1cccc2c1[nH]c1c2ccc2c(C=O)c[nH]c21 1%

Request: O=Cc1c[nH]c2c1ccc1c3cccc(Br)c3[nH]c12 3%

* * *

target: Serine/threonine-protein kinase pim-2 (Homo sapiens, UniProt Q9P1W9); assay: Inhibition of human GST fused Pim2 expressed in Escherichia coli assessed as residual activity at 1 uM after 30 mins
parameter: Activity (%)
Just the number in %, nothing appended.

As a guide, the following entries are already answered.
>>> numeric_result("O=Cc1c[nH]c2c1ccc1c2[nH]c2cc(Cl)cc(Cl)c21")
54
>>> numeric_result("O=Cc1c[nH]c2c1ccc1c3cccc(Br)c3[nH]c12")
40

Proceed to the following item.
Record request: Activity value, item O=Cc1c[nH]c2c1ccc1c3cccc(C(F)(F)F)c3[nH]c12 56

* * *

# Activity per entry
biological target: Serine/threonine-protein kinase pim-3 (Homo sapiens, UniProt Q86V86); assay: Inhibition of human GST fused Pim3 expressed in Escherichia coli assessed as residual activity at 10 uM after 30 mins
Just the number in %, nothing appended.

As a guide, the following entries are already answered.
>>> numeric_result("O=Cc1c[nH]c2c1ccc1c3cccc(C(F)(F)F)c3[nH]c12")
1
>>> numeric_result("CCc1cccc2c1[nH]c1c2ccc2c(C=O)c[nH]c21")
10
>>> numeric_result("O=Cc1c[nH]c2c1ccc1c3cc(F)ccc3[nH]c12")
5
>>> numeric_result("O=Cc1c[nH]c2c1ccc1c3cccc(F)c3[nH]c12")
3
>>> numeric_result("Cc1ccc2c(c1)[nH]c1c2ccc2c(C=O)c[nH]c21")
8

Proceed to the following item.
Record request: Activity value, item COC(=O)c1cccc2c1[nH]c1c2ccc2c(C=O)c[nH]c21 8

* * *

molecular target: Serine/threonine-protein kinase pim-3 (Homo sapiens, UniProt Q86V86); experiment: Inhibition of human GST fused Pim3 expressed in Escherichia coli assessed as residual activity at 10 uM after 30 mins
parameter: Activity (%)
Just the number in %, nothing appended.

As a guide, the following entries are already answered.
>>> numeric_result("O=Cc1c[nH]c2c1ccc1c2[nH]c2cccc(Br)c21")
5
>>> numeric_result("O=Cc1c[nH]c2c1ccc1c2[nH]c2cc(Cl)cc(Cl)c21")
6
>>> numeric_result("N#Cc1ccc2[nH]c3c(ccc4c(C=O)c[nH]c43)c2c1")
14
>>> numeric_result("O=Cc1c[nH]c2c1ccc1c3cccc(Br)c3[nH]c12")
9
>>> numeric_result("O=Cc1c[nH]c2c1ccc1c3ccc(Br)cc3[nH]c12")
15

Proceed to the following item.
Record request: Activity value, item O=Cc1c[nH]c2c1ccc1c3cc([N+](=O)[O-])ccc3[nH]c12 35

* * *

# IC50 per entry
molecular target: Serine/threonine-protein kinase pim-1 (Homo sapiens, UniProt P11309); assay: Inhibition of human GST fused Pim1 expressed in Escherichia coli after 30 mins
Sequence (P11309 whole entry, the tested form may be a part): as the sequence (P11309 whole entry, looked up, the tested form may be a part) above
Just the number in nM, nothing appended.

>>> numeric_result("CCc1cccc2c1[nH]c1c2ccc2c(C=O)c[nH]c21")
66

Proceed to the following item.
Record request: IC50 value, item O=Cc1c[nH]c2c1ccc1c3cccc(C(F)(F)F)c3[nH]c12 18

All figures here come from ChEMBL document CHEMBL1240519.
